# TARGET_DESC: KRas G12C mutant (Homo sapiens, UniProt P01116, G12C)
# Construct: made in house
# EXPERIMENTAL_DETAILS: Ras GTP binding domain inhibition assay (labeled-GTP competition, cell-free)
# CONDITION_NOTES: without SOS, read-out: KRas G12C mutant: % inh.
Consider the following molecules and their measured inhibition at 20 µM readings.

Past entries and their recorded results:
COCC1CCN(c2nc(-c3nccn3C)nc3sc(-c4ccn(C(C)C)n4)c(-c4ccccc4)c23)C1 (racemic) [Compound 76]: 1 to 25%
Cn1ccc(-c2nc(O)c3scc(-c4ccccn4)c3n2)n1 [Compound 90]: 1 to 25%

Hello, I am looking for reported inhibition at 20 µM with KRas G12C mutant (Homo sapiens, UniProt P01116, G12C) for COc1ccn2c(-c3nc(O)c4scc(-c5ccccn5)c4n3)ncc2c1 [Compound 85] . Could you help?
26 to 50%

What measured inhibition at 20 µM is associated with O=C(c1nc(O)c2scc(-c3ccccn3)c2n1)N1CCCC1 [Compound 19] on KRas G12C mutant (Homo sapiens, UniProt P01116, G12C)?
1 to 25%

// fetch KRas G12C mutant (Homo sapiens, UniProt P01116, G12C) inhibition at 20 µM for Cc1c(-c2ccn(C(C)C)n2)sc2nc(-c3nccn3C)nc(NC[C@H]3CCC(=O)N3)c12 [Compound 52]
51 to 75%

For KRas G12C mutant (Homo sapiens, UniProt P01116, G12C), provide inhibition at 20 µM of COc1cc(Nc2nc(-c3nccn3C)nc3sc(-c4ccn(C(C)C)n4)c(C)c23)ncn1 [Compound 66] please.
26 to 50%

// fetch KRas G12C mutant (Homo sapiens, UniProt P01116, G12C) inhibition at 20 µM for COCC1CN(c2nc(-c3nccn3C)nc3sc(-c4ccn(C(C)C)n4)c(C)c23)CCO1 (racemic) [Compound 45]
51 to 75%

Give inhibition at 20 µM (KRas G12C mutant (Homo sapiens, UniProt P01116, G12C)) of the following molecule: Cc1c(-c2ccn(C(C)C)n2)sc2nc(-c3nccn3C)nc(NCCc3ncc[nH]3)c12 [Compound 53]
26 to 50%

// fetch KRas G12C mutant (Homo sapiens, UniProt P01116, G12C) inhibition at 20 µM for COc1nc(-c2nccn2C)nc2c(-c3ncccc3F)csc12 [Compound 95]
76 to 100%

State its inhibition at 20 µM on KRas G12C mutant (Homo sapiens, UniProt P01116, G12C): CO[C@H]1CC[C@@H](Nc2nc(C(=O)N3CCCC3)nc3sccc23)C1 (racemic) [Compound 25]
0%

Form: Entry = CO[C@H]1CN(c2nc(-c3nccn3C)nc3sc(-c4ccn(C(C)C)n4)c(C)c23)C[C@H]1OC [Compound 39] | System = KRas G12C mutant (Homo sapiens, UniProt P01116, G12C) | inhibition at 20 µM = ____
51 to 75%

GET /values?readout=inhibition at 20 µM&system=KRas G12C mutant (Homo sapiens, UniProt P01116, G12C)&item= COCC1CCN(c2nc(-c3nccn3C)nc3sc(-c4ccn(C(C)C)n4)c(C)c23)C1 (racemic) [Compound 38]
51 to 75%

Lab note: need inhibition at 20 µM with KRas G12C mutant (Homo sapiens, UniProt P01116, G12C) for entry Cc1c(-c2ccn(C(C)C)n2)sc2nc(-c3nccn3C)nc(NC[C@@H]3CCC(=O)N3)c12 [Compound 51] , please look it up.
51 to 75%

Which measured inhibition at 20 µM belongs to Cc1c(-c2ccn(C(C)C)n2)sc2nc(-c3nccn3C)nc(NCc3n[nH]c(=O)n3C)c12 [Compound 60] , tested on KRas G12C mutant (Homo sapiens, UniProt P01116, G12C)?
26 to 50%

Fill in the recorded inhibition at 20 µM for this molecule, with KRas G12C mutant (Homo sapiens, UniProt P01116, G12C) as test system: CCOCCn1ccnc1-c1nc(O)c2scc(-c3ccccn3)c2n1 [Compound 80]
51 to 75%

What reported inhibition at 20 µM corresponds to Cc1c(-c2ccn(C(C)C)n2)sc2nc(-c3nccn3C)nc(NCc3c[nH]cn3)c12 [Compound 59] on KRas G12C mutant (Homo sapiens, UniProt P01116, G12C)?
51 to 75%

Request body: readout inhibition at 20 µM, system KRas G12C mutant (Homo sapiens, UniProt P01116, G12C), query Cc1c(-c2ccn(C(C)C)n2)sc2nc(-c3nccn3C)nc(NCCc3cn(C)cn3)c12 [Compound 58] . Return the value.
76 to 100%

API: value(readout= inhibition at 20 µM, system= KRas G12C mutant (Homo sapiens, UniProt P01116, G12C), query= CO[C@H]1C[C@@H](Nc2nc(-c3nccn3C)nc3sc(-c4ccn(C(C)C)n4)c(C)c23)C[C@H]1OC [Compound 42] )
76 to 100%

Identify the measured inhibition at 20 µM of Oc1nc(-c2ccc3[nH]ncc3n2)nc2c(-c3ccccn3)csc12 [Compound 93] for KRas G12C mutant (Homo sapiens, UniProt P01116, G12C).
26 to 50%

API: value(readout=inhibition at 20 µM, system=KRas G12C mutant (Homo sapiens, UniProt P01116, G12C)) for record Cc1cnc(-c2nc(O)c3scc(-c4ccccn4)c3n2)s1 [Compound 92]
51 to 75%

Provide the documented inhibition at 20 µM with KRas G12C mutant (Homo sapiens, UniProt P01116, G12C) as the system for Cn1ccnc1-c1nc(O)c2scc(-c3ncccc3F)c2n1 [Compound 30]
51 to 75%

Hello, I am looking for reported inhibition at 20 µM with KRas G12C mutant (Homo sapiens, UniProt P01116, G12C) for CO[C@@H]1CC[C@H](Nc2nc(-c3nccn3C)nc3sc(-c4ccn(C(C)C)n4)c(C)c23)C1 [Compound 31] . Could you help?
51 to 75%
